Where these numbers come from: BigSolDB 2.1

# MEASUREMENT_CONDITIONS: in DMF, 318.15 K
MEASURE_NAME: solubility (mole fraction)
One number for each entry.

Task item: Would you kindly share the measured solubility (mole fraction) for "Nc1cncc(Cl)n1" ?
Reply: 0.0378

====

# MEASUREMENT_CONDITIONS: in methanol, 313.15 K
MEASURE_NAME: solubility (mole fraction)
Give bare numbers.

Task item: Would you kindly share the measured solubility (mole fraction) for "Nc1cncc(Cl)n1" ?
Reply: 0.00415

====

# MEASUREMENT_CONDITIONS: in n-propanol, 293.15 K
MEASURE_NAME: solubility (mole fraction)

Task item: Would you kindly share the measured solubility (mole fraction) for "Nc1cncc(Cl)n1" ?
Reply: 0.00858

====

# MEASUREMENT_CONDITIONS: in ethylene glycol, 298.15 K
MEASURE_NAME: solubility (mole fraction)

Task item: Would you kindly share the measured solubility (mole fraction) for "Nc1cncc(Cl)n1" ?
Reply: 0.00172

====

# MEASUREMENT_CONDITIONS: in ethanol, 318.15 K
MEASURE_NAME: solubility (mole fraction)
Give bare numbers.

Task item: Would you kindly share the measured solubility (mole fraction) for "Nc1cncc(Cl)n1" ?
Reply: 0.00624

====

# MEASUREMENT_CONDITIONS: in isopropanol, 318.15 K
MEASURE_NAME: solubility (mole fraction)
Give bare numbers.

Task item: Would you kindly share the measured solubility (mole fraction) for "Nc1cncc(Cl)n1" ?
Reply: 0.017

====

# MEASUREMENT_CONDITIONS: in acetonitrile, 278.15 K
MEASURE_NAME: solubility (mole fraction)
Numbers only.

Task item: Would you kindly share the measured solubility (mole fraction) for "Nc1cncc(Cl)n1" ?
Reply: 0.00984

====

# MEASUREMENT_CONDITIONS: in methanol, 283.15 K
MEASURE_NAME: solubility (mole fraction)

Task item: Would you kindly share the measured solubility (mole fraction) for "Nc1cncc(Cl)n1" ?
Reply: 0.00135

====

# MEASUREMENT_CONDITIONS: in DMF, 303.15 K
MEASURE_NAME: solubility (mole fraction)
Numbers only.

Task item: Would you kindly share the measured solubility (mole fraction) for "Nc1cncc(Cl)n1" ?
Reply: 0.023

====

# MEASUREMENT_CONDITIONS: in acetone, 308.15 K
MEASURE_NAME: solubility (mole fraction)
One number for each entry.

Task item: Would you kindly share the measured solubility (mole fraction) for "Nc1cncc(Cl)n1" ?
Reply: 0.0314

====

# MEASUREMENT_CONDITIONS: in n-propanol, 308.15 K
MEASURE_NAME: solubility (mole fraction)

Task item: Would you kindly share the measured solubility (mole fraction) for "Nc1cncc(Cl)n1" ?
Reply: 0.0152

====

# MEASUREMENT_CONDITIONS: in isopropanol, 298.15 K
MEASURE_NAME: solubility (mole fraction)
Give bare numbers.

Task item: Would you kindly share the measured solubility (mole fraction) for "Nc1cncc(Cl)n1" ?
Reply: 0.00874

====

# MEASUREMENT_CONDITIONS: in propylene glycol, 298.15 K
MEASURE_NAME: solubility (mole fraction)
Give bare numbers.

Task item: Would you kindly share the measured solubility (mole fraction) for "Nc1cncc(Cl)n1" ?
Reply: 0.00204

====

# MEASUREMENT_CONDITIONS: in ethanol, 303.15 K
MEASURE_NAME: solubility (mole fraction)
Numbers only.

Task item: Would you kindly share the measured solubility (mole fraction) for "Nc1cncc(Cl)n1" ?
Reply: 0.00384
